B1: glmS ribozyme (parent)
chain: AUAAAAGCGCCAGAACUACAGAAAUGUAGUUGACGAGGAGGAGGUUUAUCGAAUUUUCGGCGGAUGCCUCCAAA

variants of: B1; assay: self-cleavage kobs at 40 uM GlcN6P; higher = faster cleavage; RNA array; conditions: with glucosamine-6-phosphate
Fewer inactive variants are shown than the library holds.
endpoint: self-cleavage kobs at 40 uM GlcN6P

> print(dat)
               variant.identifier                            endpoint        result
 1                       C8G U55C  self-cleavage kobs at 40 uM GlcN6P   < 1e-05 s⁻¹
 2                        A6G G7C  self-cleavage kobs at 40 uM GlcN6P   < 1e-05 s⁻¹
 3                      G40U U47A  self-cleavage kobs at 40 uM GlcN6P  6.16e-05 s⁻¹
 4            C11U U49G C58U G60C  self-cleavage kobs at 40 uM GlcN6P   < 1e-05 s⁻¹
 5                      A12C U45G  self-cleavage kobs at 40 uM GlcN6P  0.000128 s⁻¹
 6                      A14C G40A  self-cleavage kobs at 40 uM GlcN6P  3.61e-05 s⁻¹
 7                 A36C G41C U69A  self-cleavage kobs at 40 uM GlcN6P   < 1e-05 s⁻¹
 8                      U55G C71A  self-cleavage kobs at 40 uM GlcN6P  0.000162 s⁻¹
 9            A14U C50U C58U G60U  self-cleavage kobs at 40 uM GlcN6P   < 1e-05 s⁻¹
10                 G13U C50G C61G  self-cleavage kobs at 40 uM GlcN6P  8.16e-05 s⁻¹
11                      U31A A53C  self-cleavage kobs at 40 uM GlcN6P  4.92e-05 s⁻¹
12            G13U A53G G63A C68U  self-cleavage kobs at 40 uM GlcN6P   < 1e-05 s⁻¹
13                      U31A A33U  self-cleavage kobs at 40 uM GlcN6P   < 1e-05 s⁻¹
14                 G35C G41U G51C  self-cleavage kobs at 40 uM GlcN6P   < 1e-05 s⁻¹
15                      G60A A64U  self-cleavage kobs at 40 uM GlcN6P   < 1e-05 s⁻¹
16            A12G A15G A53C C67G  self-cleavage kobs at 40 uM GlcN6P   < 1e-05 s⁻¹
17            A36U A64G U69A C71G  self-cleavage kobs at 40 uM GlcN6P  6.16e-05 s⁻¹
18                 U57C G59U C61U  self-cleavage kobs at 40 uM GlcN6P   < 1e-05 s⁻¹
19       C10A G37C G38A A64U U65C  self-cleavage kobs at 40 uM GlcN6P   < 1e-05 s⁻¹
20                      G44C U57C  self-cleavage kobs at 40 uM GlcN6P   < 1e-05 s⁻¹
21                      G35A C71U  self-cleavage kobs at 40 uM GlcN6P   < 1e-05 s⁻¹
22                      A14U A53U  self-cleavage kobs at 40 uM GlcN6P  0.000127 s⁻¹
23                 A14U G63U A64U  self-cleavage kobs at 40 uM GlcN6P   < 1e-05 s⁻¹
24                      G37C G63A  self-cleavage kobs at 40 uM GlcN6P   < 1e-05 s⁻¹
25                 G32C U45G U65A  self-cleavage kobs at 40 uM GlcN6P   < 1e-05 s⁻¹
26                      G29U C67U  self-cleavage kobs at 40 uM GlcN6P  4.55e-05 s⁻¹
27  C10U C11A A39C A42U U47C G66C  self-cleavage kobs at 40 uM GlcN6P   < 1e-05 s⁻¹
28                      G60A G66A  self-cleavage kobs at 40 uM GlcN6P   < 1e-05 s⁻¹
29                 C10G A14C C70U  self-cleavage kobs at 40 uM GlcN6P   < 1e-05 s⁻¹
30                      C34A U56G  self-cleavage kobs at 40 uM GlcN6P   < 1e-05 s⁻¹
31                      G13C G51A  self-cleavage kobs at 40 uM GlcN6P   < 1e-05 s⁻¹
32                      A14U A42G  self-cleavage kobs at 40 uM GlcN6P  0.000273 s⁻¹
33            U30C G38U G43C U46G  self-cleavage kobs at 40 uM GlcN6P   < 1e-05 s⁻¹
34                      G38U A48G  self-cleavage kobs at 40 uM GlcN6P   < 1e-05 s⁻¹
35                      C10A G51C  self-cleavage kobs at 40 uM GlcN6P   < 1e-05 s⁻¹
36             G9A A12U G13C G40C  self-cleavage kobs at 40 uM GlcN6P   < 1e-05 s⁻¹
37                      G29A G63C  self-cleavage kobs at 40 uM GlcN6P   < 1e-05 s⁻¹
38                 A15U G59C A64C  self-cleavage kobs at 40 uM GlcN6P   < 1e-05 s⁻¹
39                      G37U A42G  self-cleavage kobs at 40 uM GlcN6P   < 1e-05 s⁻¹
40                      C16G U56A  self-cleavage kobs at 40 uM GlcN6P  5.21e-05 s⁻¹
41             A6G U31A G44U C67G  self-cleavage kobs at 40 uM GlcN6P   < 1e-05 s⁻¹
42                      C11U U56A  self-cleavage kobs at 40 uM GlcN6P  3.72e-05 s⁻¹
43                 A36C G59U C68G  self-cleavage kobs at 40 uM GlcN6P   < 1e-05 s⁻¹
44                  C8A G29A G51U  self-cleavage kobs at 40 uM GlcN6P   < 1e-05 s⁻¹
45                       A6U G29C  self-cleavage kobs at 40 uM GlcN6P   < 1e-05 s⁻¹
46             A6G U57C C70A C71U  self-cleavage kobs at 40 uM GlcN6P   < 1e-05 s⁻¹
47                      G38U A42C  self-cleavage kobs at 40 uM GlcN6P   < 1e-05 s⁻¹
48                  C8G A14G U55G  self-cleavage kobs at 40 uM GlcN6P   < 1e-05 s⁻¹
49                      U46A C70U  self-cleavage kobs at 40 uM GlcN6P  0.000188 s⁻¹
50                       C8G U55A  self-cleavage kobs at 40 uM GlcN6P   < 1e-05 s⁻¹
51                      C10U U57G  self-cleavage kobs at 40 uM GlcN6P   < 1e-05 s⁻¹
52       A36C A39C C58U C61A C71A  self-cleavage kobs at 40 uM GlcN6P   < 1e-05 s⁻¹
53                 C50A A64G C71U  self-cleavage kobs at 40 uM GlcN6P   < 1e-05 s⁻¹
54                      G41C C61U  self-cleavage kobs at 40 uM GlcN6P   < 1e-05 s⁻¹
55       C10U G44U U45A G59C C67G  self-cleavage kobs at 40 uM GlcN6P   < 1e-05 s⁻¹
56                      G51A U65G  self-cleavage kobs at 40 uM GlcN6P   < 1e-05 s⁻¹
57                 C10U A12G G13C  self-cleavage kobs at 40 uM GlcN6P   < 1e-05 s⁻¹
58                      A42C U54A  self-cleavage kobs at 40 uM GlcN6P   < 1e-05 s⁻¹
59                  A6C C16G C71A  self-cleavage kobs at 40 uM GlcN6P   < 1e-05 s⁻¹
60                      G13U A42G  self-cleavage kobs at 40 uM GlcN6P  2.35e-05 s⁻¹
61                       G7U A36G  self-cleavage kobs at 40 uM GlcN6P   < 1e-05 s⁻¹
62                      C11G G38C  self-cleavage kobs at 40 uM GlcN6P   < 1e-05 s⁻¹
63                      G32U C61G  self-cleavage kobs at 40 uM GlcN6P   < 1e-05 s⁻¹
64                      A39C U49G  self-cleavage kobs at 40 uM GlcN6P   < 1e-05 s⁻¹
65             G7A A14C G32U G40A  self-cleavage kobs at 40 uM GlcN6P   < 1e-05 s⁻¹
66                      U30A U55A  self-cleavage kobs at 40 uM GlcN6P  0.000212 s⁻¹
67                       G7C A42G  self-cleavage kobs at 40 uM GlcN6P   < 1e-05 s⁻¹
68                 A14U G41C C70G  self-cleavage kobs at 40 uM GlcN6P  0.000998 s⁻¹
69                  C8A C67G C68G  self-cleavage kobs at 40 uM GlcN6P  5.09e-05 s⁻¹
70                      C58U G62A  self-cleavage kobs at 40 uM GlcN6P   < 1e-05 s⁻¹
71                           A15C  self-cleavage kobs at 40 uM GlcN6P  0.000227 s⁻¹
72                      G29U U30C  self-cleavage kobs at 40 uM GlcN6P   < 1e-05 s⁻¹
73            C16G C34U G59A G60U  self-cleavage kobs at 40 uM GlcN6P   < 1e-05 s⁻¹
74                      U54G G66A  self-cleavage kobs at 40 uM GlcN6P  0.000427 s⁻¹
75                       G7A G60A  self-cleavage kobs at 40 uM GlcN6P   < 1e-05 s⁻¹
76                      C50G U57A  self-cleavage kobs at 40 uM GlcN6P  3.58e-05 s⁻¹
77                      U45C C58A  self-cleavage kobs at 40 uM GlcN6P   < 1e-05 s⁻¹
78                       A6U A39C  self-cleavage kobs at 40 uM GlcN6P   < 1e-05 s⁻¹
79             C8U C16U U46A G63A  self-cleavage kobs at 40 uM GlcN6P   < 1e-05 s⁻¹
80                 U30C A36C U69G  self-cleavage kobs at 40 uM GlcN6P  0.000181 s⁻¹
81                 A15C G32U A42U  self-cleavage kobs at 40 uM GlcN6P   < 1e-05 s⁻¹
82                      U30A A52C  self-cleavage kobs at 40 uM GlcN6P   < 1e-05 s⁻¹
83                       G9C G66A  self-cleavage kobs at 40 uM GlcN6P   < 1e-05 s⁻¹
84                      G41U U47G  self-cleavage kobs at 40 uM GlcN6P  4.35e-05 s⁻¹
85                      G41U G44C  self-cleavage kobs at 40 uM GlcN6P   < 1e-05 s⁻¹
86                      U45G A53U  self-cleavage kobs at 40 uM GlcN6P   9.6e-05 s⁻¹
87   G7C G37U U47C G59U G66U C70U  self-cleavage kobs at 40 uM GlcN6P   < 1e-05 s⁻¹
88                      G44U A48G  self-cleavage kobs at 40 uM GlcN6P   < 1e-05 s⁻¹
89                      U31C U55A  self-cleavage kobs at 40 uM GlcN6P  0.000152 s⁻¹

Every entry's value here was drawn from the supplement of paper PMC7125110.
